Molecular target: human islet GK isoform (Homo sapiens, UniProt P35557)
Construct: (His)6
Sequence (P35557 1-465): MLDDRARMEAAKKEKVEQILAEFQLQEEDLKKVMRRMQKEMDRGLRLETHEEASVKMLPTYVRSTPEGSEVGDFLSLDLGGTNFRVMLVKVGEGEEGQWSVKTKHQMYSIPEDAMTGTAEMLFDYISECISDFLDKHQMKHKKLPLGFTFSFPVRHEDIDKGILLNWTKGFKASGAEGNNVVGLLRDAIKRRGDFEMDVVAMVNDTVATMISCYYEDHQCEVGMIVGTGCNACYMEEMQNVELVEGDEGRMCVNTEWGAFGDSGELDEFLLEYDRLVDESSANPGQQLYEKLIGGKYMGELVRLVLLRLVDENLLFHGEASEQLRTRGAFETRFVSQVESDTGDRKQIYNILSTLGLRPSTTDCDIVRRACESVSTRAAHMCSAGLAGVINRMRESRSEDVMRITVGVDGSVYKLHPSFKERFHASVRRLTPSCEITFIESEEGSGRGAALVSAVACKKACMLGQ
Test: Glucokinase Assay
Settings: 10 mM glucose; n=5; read-out: EC50 of GK activation
pEC50: −log10 of the molar value.

- SMILES_STRING: "O=C(Nc1ncc(SCCN2CCCC2)s1)[C@]1(c2ccc(S(=O)(=O)C3CC3)cc2)C[C@H]1C1CCCCC1"
  SYSTEM: "human islet GK isoform (Homo sapiens, UniProt P35557)"
  pEC50: 7.38
